Where do the numbers come from? From patent US8507454B2.

Test: Example 3: serum tobramycin pharmacokinetics
Type: in vivo
Settings: both sexes, human, inhaled, both formulations (300 mg TOBI, 420 mg TSI), read-out: Individual estimates of serum half-life, range
Method: […] Serum Tobramycin Concentrations: Blood samples were collected at predose and at 0.167, 1, 2, 4, 6, and 8 h after the end of the nebulization period. […] Concentrations of tobramycin in serum were analyzed with a modified fluorescence polarization immunoassay (FPIA) method using the Abbott TDx®/TDxFLx® System. […] The lower limit of quantitation was 0.050 μg/mL. […]
Readout Label: half-life

Molecule | Readout Label | Value
NC[C@H]1O[C@H](O[C@H]2[C@H](O)[C@@H](O[C@H]3O[C@H](CO)[C@@H](O)[C@H](N)[C@H]3O)[C@H](N)C[C@@H]2N)[C@H](N)C[C@@H]1O [tobramycin] | half-life | 1.1 to 6.8 h
